system: MDA-MB-231 breast; assay: NCI tumour cell line growth inhibition, 48 h
Items are presented alongside their recorded TGI.
recorded_metric: TGI (µM)

>>> measured_value("O=C1c2c(c3c4cc(F)ccc4oc3c3[nH]c4ccccc4c23)C(=O)N1O")
21.6
>>> measured_value("O=c1cc(NNc2ccccc2)[nH]c(=O)[nH]1")
29.3
>>> measured_value("COc1cc(C[C@@]2(C)[C@@H]3CCC[C@H](CO)[C@@]3(C)CC[C@@H]2C)c(Cl)c(OC)c1")
32.3

* * *

tested on: SK-MEL-2 melanoma; assay: NCI tumour cell line growth inhibition, 48 h
Items are presented alongside their recorded GI50.
recorded_metric: GI50

>>> measured_value("Cc1cccc(CNc2c3ccccc3nc3ccccc23)c1")
"1.94 µM"
>>> measured_value("N.N.N.N.N#N.N#N.[Cl-].[Os+6]")
"> 100 µM"
>>> measured_value("O=C(O)CCCN1C(=O)/C(=C/C(Cl)=C/c2ccccc2)SC1=S")
"2.47 µM"
>>> measured_value("CNC(=O)[C@H](Cc1c[nH]c2ccccc12)NC(=O)[C@@H](CC(=O)NO)CC(C)C")
"> 25 µM"
>>> measured_value("COc1ccc(C2=Nn3c(nnc3-c3ccc(F)c(Cl)c3)SC2)cc1")
"> 100 µM"
>>> measured_value("CC(C)(C)OC(=O)N(CCCCN(CCCn1c2c(c3ccccc3c1=O)C(=O)c1ccccc1-2)C(=O)OC(C)(C)C)CCCn1c2c(c3ccccc3c1=O)C(=O)c1ccccc1-2")
"65.1 µM"
>>> measured_value("CC(C)(C)OC(=O)NCCCCCCCCCn1c2c(c3ccccc3c1=O)C(=O)c1ccccc1-2")
"27.9 µM"
>>> measured_value("O=[N+]([O-])c1ccc(Sc2cccc[n+]2[O-])c2nonc12")
"13.5 µM"
>>> measured_value("CN1CCN(C2=C(Cl)C(=O)c3ccccc3C2=O)CC1")
"3.15 µM"
>>> measured_value("COc1ccc(Cn2cc3c(c2-c2ccccc2)CCc2cnoc2-3)cc1")
"2.79 µM"
>>> measured_value("CN(C)S(=O)(=O)c1cccc(C(=O)Nc2nc(-c3ccc(F)c(F)c3)cs2)c1")
"19.4 µM"
>>> measured_value("COC(=O)CNC(=O)C(=O)c1c(O)c(O)c(C(C)C)c2cc(C)c(-c3c(C)cc4c(C(C)C)c(O)c(O)c(C(=O)C(=O)NCC(=O)OC)c4c3O)c(O)c12")
"0.832 µM"
>>> measured_value("CCCC(=O)Oc1ccc(/C(=C(\\C)c2ccc(Cl)cc2)c2ccc(OCCN(CC)CC)cc2)cc1")
"2.83 µM"
>>> measured_value("CCN(Cc1ccc(Cl)c(Cl)c1)c1ccc2nc(N)nc(N)c2c1C")
"1.48 µM"
>>> measured_value("Nc1[nH]nc(Nc2ccccc2)c1-c1nc2ccccc2s1")
"2.77 µM"
>>> measured_value("O=[N+]([O-])c1ccccc1/C=N\\NC(=S)N/N=C/c1ccccc1[N+](=O)[O-]")
"6.41 µM"

* * *

tested on: HCT-15 colon; test: NCI tumour cell line growth inhibition, 48 h
recorded_metric: TGI

>>> measured_value("CCN(Cc1cc(Cl)cc(C)c1O)Cc1c(O)ccc2ccccc12")
"30.5 µM"
>>> measured_value("O=C1CCCC2=C1CC1=C(CCCC1=O)N2c1ccc(Cl)cc1")
"> 100 µM"
>>> measured_value("COc1ccc(/C=C\\c2cc(OC)c(OC)c(OC)c2)cc1NC(=O)/C=C/c1ccc(OC)c(OC)c1")
"> 100 µM"
>>> measured_value("CC1=CC(=O)NP(=O)(Oc2ccc(Cl)cc2)N1 (stereo unspecified)")
"> 100 µM"
>>> measured_value("CCCC(=O)Oc1ccc(/C(=C(\\C)c2ccc(Cl)cc2)c2ccc(OCCN(CC)CC)cc2)cc1")
"3.73 µM"
>>> measured_value("Cc1nc(-n2nc(-c3ccccc3)cc2-c2ccccc2)sc1C(=O)CC(=O)C(=O)Nc1ccc(Cl)c(Cl)c1")
"> 100 µM"
>>> measured_value("N=c1oc2cc(O)ccc2cc1C(=O)Nc1ccccn1")
"> 100 µM"
>>> measured_value("CC(=O)CC[N+](C)(C)C")
"46.4 µM"
>>> measured_value("COCN1COCN(C)C1=O")
"> 100 µM"
>>> measured_value("COc1ccc2c(c1OC)C(=O)C2")
"> 100 µM"
>>> measured_value("CCOC(=O)/C(C(N)=O)=C(\\O)C(=O)/C=C(\\O)c1ccc(Cl)cc1")
"34.8 µM"
>>> measured_value("Cc1cc(NS(=O)(=O)c2ccc(NC(=O)c3ccc(Cl)c4c(Nc5ccc(S(=O)(=O)Nc6cc(C)on6)cc5)c5ccccc5nc34)cc2)no1")
"43 µM"
>>> measured_value("Cc1c(C)c2cc3c(=O)c(CCl)coc3c(C)c2oc1=O")
"> 100 µM"
>>> measured_value("COc1cc(C[C@H]2COC(=O)[C@]2(O)Cc2ccc(OCc3ccccc3)c(OC)c2)ccc1OCc1ccccc1")
"> 100 µM"
>>> measured_value("Cc1ccc([N+](=O)[O-])cc1S(=O)(=O)Nc1ccc(C2=NN(S(=O)(=O)c3cc([N+](=O)[O-])ccc3C)C(c3cccs3)C2)cc1 (stereo unspecified)")
"> 100 µM"
>>> measured_value("C=CC[P@]1(=O)O[C@H](c2ccccc2)C(C)N1C(C)C (stereo partly specified)")
"> 100 µM"
>>> measured_value("CN1C/C(=C\\c2cccs2)C2=NN(c3ccccc3)C(c3cccs3)C2C1 (stereo unspecified)")
"> 100 µM"
>>> measured_value("CCN1C(=O)N(CC)C2C1NN=c1s/c(=C3\\C(=O)Nc4ccccc43)c(=O)n12 (stereo unspecified)")
"> 100 µM"
>>> measured_value("CC1(Cl)C(=O)NC(=O)N([C@H]2C[C@H](O)[C@@H](CO)O2)C1N=[N+]=[N-] (stereo partly specified)")
"> 100 µM"
>>> measured_value("COc1ccc(C2=Nn3c(nnc3-c3ccc(F)c(Cl)c3)SC2)cc1")
"> 100 µM"
>>> measured_value("CCCC(=O)OCC1OC(n2cc(F)c(=O)[nH]c2=O)CC1OC(=O)CCC (stereo unspecified)")
"> 10 µM"
